These entries and their values trace back to patent US20220073617A1.

target: T1, monovalent hVISTA-ECD (human VISTA extracellular domain with His tail) (human, UniProt Q9H7M9 33-193); test: SPR, pH 6.0
T1 construct: analyte flowed over captured antibody; also called huVISTA-His
T1 sequence (Q9H7M9 other isoform, or with tags, fused parts or gaps limits assumed): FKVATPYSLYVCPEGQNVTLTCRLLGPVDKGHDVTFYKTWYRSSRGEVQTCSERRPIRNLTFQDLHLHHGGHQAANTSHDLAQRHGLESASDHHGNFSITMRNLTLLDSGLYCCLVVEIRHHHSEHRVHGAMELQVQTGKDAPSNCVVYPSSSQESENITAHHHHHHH
As shown below, each of these binders has a reported Kd value.
Form entry: value (nM) — number only.

In the examples that follow, each entry is paired with its recorded Kd.
[[record]]
binder = "P1-064484 (41F11_VH_L96E) (antibody, V domains shown, Kabat positions; also called P1-064484-1) VH: QVQLVESGGGLVKPGGSLRLSCAASGFTFSDYYMSWIRQAPGKGLEWVSYISNSGSPIYYADSVKGRFTISRDNAKNSLYLQMNSLRAEDTAVYYCARDEPGWYFDLWGRGTLVTVSS VL: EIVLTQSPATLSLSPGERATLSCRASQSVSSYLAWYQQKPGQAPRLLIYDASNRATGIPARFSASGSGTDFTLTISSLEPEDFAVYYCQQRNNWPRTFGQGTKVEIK"
reading = 7.18

[[record]]
binder = "P1-064502 (41F11_Vk_R96YA64G) (antibody, V domains shown, also called P1-064502-1) VH: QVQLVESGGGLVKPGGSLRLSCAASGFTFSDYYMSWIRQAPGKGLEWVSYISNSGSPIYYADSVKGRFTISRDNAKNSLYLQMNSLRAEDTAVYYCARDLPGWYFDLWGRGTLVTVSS VL: EIVLTQSPATLSLSPGERATLSCRASQSVSSYLAWYQQKPGQAPRLLIYDASNRATGIPARFSGSGSGTDFTLTISSLEPEDFAVYYCQQRNNWPYTFGQGTKVEIK"
reading = 81.7


Next binder, Kd to be filled in.
Entry under review: P1-064472 (41F11_VH_F27E) (antibody, V domains shown, Kabat positions; also called P1-064472-1) VH: QVQLVESGGGLVKPGGSLRLSCAASGETFSDYYMSWIRQAPGKGLEWVSYISNSGSPIYYADSVKGRFTISRDNAKNSLYLQMNSLRAEDTAVYYCARDLPGWYFDLWGRGTLVTVSS VL: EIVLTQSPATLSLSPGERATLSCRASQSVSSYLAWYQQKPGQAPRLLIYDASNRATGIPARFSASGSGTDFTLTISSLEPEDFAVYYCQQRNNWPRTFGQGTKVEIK . Reported Kd?
18
